# system: NLRP3 inflammasome (Mus musculus, UniProt Q8R4B8)
# Sequence (Q8R4B8 whole entry): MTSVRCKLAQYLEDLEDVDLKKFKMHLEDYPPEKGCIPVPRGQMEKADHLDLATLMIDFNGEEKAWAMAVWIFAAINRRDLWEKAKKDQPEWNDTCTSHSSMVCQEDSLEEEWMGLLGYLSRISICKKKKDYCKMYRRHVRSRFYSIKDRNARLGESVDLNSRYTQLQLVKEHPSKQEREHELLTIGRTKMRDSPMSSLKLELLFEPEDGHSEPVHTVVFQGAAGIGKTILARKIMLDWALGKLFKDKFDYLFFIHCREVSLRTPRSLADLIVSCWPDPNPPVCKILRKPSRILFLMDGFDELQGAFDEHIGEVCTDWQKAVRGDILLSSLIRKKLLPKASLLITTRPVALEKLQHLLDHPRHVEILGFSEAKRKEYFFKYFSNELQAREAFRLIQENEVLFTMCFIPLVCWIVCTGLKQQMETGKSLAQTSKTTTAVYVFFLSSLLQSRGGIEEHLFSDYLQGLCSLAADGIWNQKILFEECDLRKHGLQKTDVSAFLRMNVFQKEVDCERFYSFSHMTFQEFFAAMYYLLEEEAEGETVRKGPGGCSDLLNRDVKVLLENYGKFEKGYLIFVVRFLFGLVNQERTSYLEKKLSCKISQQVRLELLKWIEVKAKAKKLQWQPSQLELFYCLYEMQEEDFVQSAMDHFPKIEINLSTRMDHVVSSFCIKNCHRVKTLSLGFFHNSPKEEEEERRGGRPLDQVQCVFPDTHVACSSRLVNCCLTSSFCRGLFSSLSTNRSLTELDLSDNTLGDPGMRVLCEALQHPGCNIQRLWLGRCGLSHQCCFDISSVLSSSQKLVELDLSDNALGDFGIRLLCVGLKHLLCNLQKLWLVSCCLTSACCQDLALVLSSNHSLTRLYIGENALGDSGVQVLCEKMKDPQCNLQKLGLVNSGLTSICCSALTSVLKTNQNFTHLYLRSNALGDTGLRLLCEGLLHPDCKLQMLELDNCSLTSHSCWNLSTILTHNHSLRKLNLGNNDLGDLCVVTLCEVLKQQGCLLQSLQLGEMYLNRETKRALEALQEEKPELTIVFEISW
# protocol.notes: Inhibition of IL-1β release, NLRP3 inflammasome activation assay in BMDM
# Assay type: cell-based
# study.conditions: commercial compounds (Table 9), read-out: BMDM IC50 vs NLRP3
Entries and their IC50

Example cases with answers are listed next.
>  <molecule>
O=C(Nc1ccc(Cl)cc1)NS(=O)(=O)c1ccc2c(c1)CCC2 [Sulofenur, reference compound]

>  <obs.value>
> 10 µM

$$$$
>  <molecule>
Cc1cc(C(=O)NCCc2ccc(S(N)(=O)=O)cc2)no1 [Glisoxepide Precursor, reference compound]

>  <obs.value>
> 10000 µM

$$$$
>  <molecule>
CCCNC(=O)NS(=O)(=O)c1ccc(Cl)cc1 [Chlorpropamide, reference compound]

>  <obs.value>
> 200 µM

$$$$
>  <molecule>
Cc1ccc(S(=O)(=O)NC(=O)NN2CC3CCCC3C2)cc1 (centres unmarked) [Gliclazide, reference compound]

>  <obs.value>
> 200 µM

$$$$
>  <molecule>
CC(=O)c1ccc(S(=O)(=O)NC(=O)NC2CCCCC2)cc1 [Acetohexamide, reference compound]

>  <obs.value>
> 200 µM

$$$$
>  <molecule>
COc1ccc2c(c1)C(=O)N(CCc1ccc(S(N)(=O)=O)cc1)C(=O)C2(C)C [Gliquidone precursor, reference compound]

>  <obs.value>
> 10 µM

$$$$
>  <molecule>
CCCCNC(=O)NS(=O)(=O)c1ccc(C)cc1 [Tolbutamide, reference compound]

>  <obs.value>
> 200 µM

$$$$

Shifting focus to the molecule that follows.
Exercise: Give the reported value of IC50 for this record: Cc1cnc(C(=O)NCCc2ccc(S(=O)(=O)NC(=O)NC3CCCCC3)cc2)cn1 [Glipizide, reference compound]
Solution: > 200 µM
